# assayComment: Selectivity index, ratio of IC50 for human HepG2 cells to MIC for Mycobacterium tuberculosis H37Rv after 21 days
# Type: toxicity, cell-based
# conditionSummary: HepG2 cells versus Mycobacterium tuberculosis H37Rv, read-out: Selectivity Index
# selectivity ratio at 504 h listing for each entry below

{"smilesString": "O=C(Nc1cc(C(F)(F)F)cc(C(F)(F)F)c1)c1ccc(Cl)cc1O", "selectivity ratio at 504 h": 2.39}
{"smilesString": "O=C(Nc1ccc(Br)cc1)c1cc(Cl)ccc1O", "selectivity ratio at 504 h": 0.2}
{"smilesString": "O=C(Nc1ccc(C(F)(F)F)cc1)c1cc(Cl)c(Br)cc1O", "selectivity ratio at 504 h": 3.26}
{"smilesString": "O=C(Nc1ccc(Br)cc1)c1ccc(Cl)cc1O", "selectivity ratio at 504 h": 0.81}
{"smilesString": "O=C(Nc1ccc(Cl)c(Cl)c1)c1cc(Br)c(Cl)cc1O", "selectivity ratio at 504 h": 1.91}
{"smilesString": "O=C(Nc1ccc(Cl)c(Cl)c1)c1ccc(Br)cc1O", "selectivity ratio at 504 h": 8.84}
{"smilesString": "O=C(Nc1ccc(Br)cc1)c1cc(Br)c(Br)cc1O", "selectivity ratio at 504 h": 4.47}
{"smilesString": "O=C(Nc1ccc(C(F)(F)F)cc1)c1cc(Cl)c(Cl)cc1O", "selectivity ratio at 504 h": 4.94}
{"smilesString": "O=C(Nc1cc(C(F)(F)F)cc(C(F)(F)F)c1)c1cc(Cl)ccc1O", "selectivity ratio at 504 h": 1.27}
{"smilesString": "O=C(Nc1cc(C(F)(F)F)cc(C(F)(F)F)c1)c1cc(Cl)c(Cl)cc1O", "selectivity ratio at 504 h": 2.43}
{"smilesString": "O=C(Nc1ccc(C(F)(F)F)cc1)c1cc(Br)ccc1O", "selectivity ratio at 504 h": 1.81}

---

# Test system: Mycobacterium kansasii
# assayComment: Antimycobacterial activity against Mycobacterium kansasii isolate 235/80 after 14 days by micromethod
# Type: functional
# conditionSummary: isolate 235/80, 336 h
measuredQuantity: MIC (µM)

{"smilesString": "O=C(Nc1ccc(C(F)(F)F)cc1)c1cc(Cl)c(Cl)cc1O", "obsValue": 8}
{"smilesString": "O=C(Nc1ccc(C(F)(F)F)cc1)c1cc(Br)ccc1O", "obsValue": 2}
{"smilesString": "O=C(Nc1ccc(Cl)c(Cl)c1)c1cc(Br)c(Br)cc1O", "obsValue": 8}
{"smilesString": "O=C(Nc1cc(C(F)(F)F)cc(C(F)(F)F)c1)c1ccc(Cl)cc1O", "obsValue": 8}
{"smilesString": "O=C(Nc1ccc(Br)cc1)c1cc(Br)c(Br)cc1O", "obsValue": 8}
{"smilesString": "O=C(Nc1ccc(C(F)(F)F)cc1)c1cc(Cl)ccc1O", "obsValue": 1}
{"smilesString": "O=C(Nc1cc(C(F)(F)F)cc(C(F)(F)F)c1)c1cc(Cl)c(Cl)cc1O", "obsValue": 8}
{"smilesString": "O=C(Nc1cc(C(F)(F)F)cc(C(F)(F)F)c1)c1cc(Cl)c(Br)cc1O", "obsValue": 8}
{"smilesString": "O=C(Nc1cc(C(F)(F)F)cc(C(F)(F)F)c1)c1cc(Br)ccc1O", "obsValue": 8}
{"smilesString": "O=C(Nc1ccc(Br)cc1)c1ccc(Br)cc1O", "obsValue": 8}
{"smilesString": "O=C(Nc1ccc(Br)cc1)c1cc(Br)ccc1O", "obsValue": 8}
